molecular target: Orexin type 1 (OX1R) receptor (Homo sapiens, UniProt O43613); assay: In vitro orexin antagonism assay: intracellular calcium measurement (FLIPR), orexin-A 3 nM as agonist; conditions: first value of IC50/Kb cell
Sequence (O43613 whole entry): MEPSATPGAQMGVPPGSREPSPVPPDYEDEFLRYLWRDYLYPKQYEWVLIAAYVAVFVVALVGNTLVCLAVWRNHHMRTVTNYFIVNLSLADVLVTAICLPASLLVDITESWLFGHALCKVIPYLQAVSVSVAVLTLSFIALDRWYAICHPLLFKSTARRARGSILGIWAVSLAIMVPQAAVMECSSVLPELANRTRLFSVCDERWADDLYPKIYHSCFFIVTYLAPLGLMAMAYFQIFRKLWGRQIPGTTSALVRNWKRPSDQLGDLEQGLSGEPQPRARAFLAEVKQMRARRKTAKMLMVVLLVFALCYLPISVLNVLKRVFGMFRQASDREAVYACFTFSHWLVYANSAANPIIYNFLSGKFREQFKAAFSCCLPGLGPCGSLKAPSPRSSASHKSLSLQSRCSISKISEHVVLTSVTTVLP
Quick list: pIC50 per entry.
The meaning of pIC50 here: minus log10 of the concentration in molar units.

O=C(c1c(-c2ccccc2)nn2cccnc12)N1CCC[C@H]1Cn1ccc(-c2ccccc2)n1 [Example 133] | 8.40
C[C@@]1(COc2cnc(C(F)(F)F)cn2)CCCN1C(=O)c1c(-c2ccccn2)nn2ccccc12 [Example 164] | 6.52
O=C(c1c(-c2ccccc2)nc2ccc(F)cn12)N1CCC[C@H]1Cn1cc(-c2ccccc2)cn1 [Example 75] | 6.80

Now take the following molecule into account.
Endpoint output: pIC50 of O=C(c1c(-c2ccccc2)nn2c1COCC2)N1CCC[C@H]1Cn1ccc(-c2ccc(F)cc2)n1 [Example 57] . Value? 7.19

----------
Quick list: Kb per entry.
molecular target: human orexin-2 receptor (OX2R) (Homo sapiens, UniProt O43614); construct: expressed in transfected cells; host or cells: CHO cells (G418 selection); test: In vitro orexin antagonism assay: intracellular calcium measurement (FLIPR), orexin-A 3 nM as agonist; format: cell-based; conditions: second value of IC50/Kb cell
Please give a number only; it is taken to be in nM.

Endpoint output: Kb of O=C(c1c(-c2ccccc2F)nn2c1COCC2)N1CCC[C@H]1Cn1ccc(-c2ccc(F)cc2)n1 [Example 66] . Value? 18

Endpoint output: Kb of O=C(c1nn2cccnc2c1-c1ccccn1)N1CCC[C@H]1Cn1cc(-c2ccc(F)cn2)cn1 [Example 194] . Value? 31

Endpoint output: Kb of O=C(c1c(-c2ccccc2)nc2ccc(F)cn12)N1CCC[C@H]1Cn1ccc(-c2ccc(F)cc2)n1 [Example 49] . Value? 7

Endpoint output: Kb of O=C(c1c(-c2ccccn2)nn2ccccc12)N1CCC[C@H]1Cn1cc(-c2ccc(F)cn2)cn1 [Example 206] . Value? 11

Endpoint output: Kb of O=C(c1c(-c2ccccc2F)nn2ccccc12)N1CC[C@H]1Cn1ccc(-c2ccc(F)cc2)n1 [Example 99] . Value? 46

----------
Biological target: human orexin-2 receptor (OX2R) (Homo sapiens, UniProt O43614)
Sequence (O43614 1-444): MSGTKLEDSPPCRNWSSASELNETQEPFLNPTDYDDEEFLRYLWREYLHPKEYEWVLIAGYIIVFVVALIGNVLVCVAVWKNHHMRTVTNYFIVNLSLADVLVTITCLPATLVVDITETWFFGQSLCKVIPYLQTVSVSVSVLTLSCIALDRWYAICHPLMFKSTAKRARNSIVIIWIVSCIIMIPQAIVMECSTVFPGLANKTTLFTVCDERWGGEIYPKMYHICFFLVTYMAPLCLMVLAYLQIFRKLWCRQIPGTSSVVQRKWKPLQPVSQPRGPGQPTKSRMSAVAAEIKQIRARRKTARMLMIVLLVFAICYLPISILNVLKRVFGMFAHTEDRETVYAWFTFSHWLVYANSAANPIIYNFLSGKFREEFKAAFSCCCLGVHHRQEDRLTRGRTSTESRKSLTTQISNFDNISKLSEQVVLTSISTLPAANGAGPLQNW
Assay: In vitro orexin antagonism assay: intracellular calcium measurement (FLIPR), orexin-A 3 nM as agonist
Details: first value of IC50/Kb cell
Outcome measure: IC50 (nM)
Please give a number only; it is taken to be in nM.

Past entries and their recorded results:
O=C(c1c(-c2ccccc2)nc2ccc(F)cn12)N1CCC[C@H]1Cn1cc(-c2ccc(F)cn2)cn1 [Example 84] | 400
O=C(c1c(-c2ccccc2F)nn2ccccc12)N1CCC[C@H]1Cn1cc(-c2ccccn2)cn1 [Example 68] | 170
O=C(c1c(-c2ccccc2)nc2cc(C(F)(F)F)ccn12)N1CCC[C@H]1Cn1cc(-c2ccc(F)cn2)cn1 [Example 81] | 70

Now take the following compound into account.
Endpoint output: IC50 of [2H]C1([2H])CC[C@@]([2H])(Cn2ccc(-c3ccc(F)cc3)n2)N1C(=O)c1c(-c2ccccc2)nc2ccc(F)cn12 [Example 177] . Value? 371
